These measurements were taken from the RNAGym collection of RNA variant scans (doi:10.7554/elife.80360).

B1: HDV Ribozyme (parent)
chain: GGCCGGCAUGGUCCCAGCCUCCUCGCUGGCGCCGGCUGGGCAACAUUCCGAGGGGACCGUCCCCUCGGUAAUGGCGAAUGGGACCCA

- Variants of: B1
- method.summary: self-cleavage, relative activity (ratio to wild type); higher = more cleavage; co-transcriptional
We begin with a simple list: items and their reported self-cleavage.
parameter.measured: self-cleavage

>>> measured("C36A G52C")
0.138
>>> measured("C19A U20C")
0
>>> measured("C63G A70C")
0.415
>>> measured("C41G C84U")
0.456
>>> measured("A43C G82U")
0.0545
>>> measured("G34C U47C")
0.185
>>> measured("G2C C30G")
0.0594
>>> measured("A43U A83G")
0.0986
>>> measured("U47A A87G")
0.96
>>> measured("G59U C62A")
0.831
>>> measured("G29A C58G")
0.271
>>> measured("C32U G68A")
0.888
>>> measured("A16G C48U")
1.42
>>> measured("C58G A71U")
0.779
>>> measured("G11C C85U")
0.266
>>> measured("G17U A56C")
0.415
>>> measured("G38U C48U")
0.141
>>> measured("C3A C33U")
0.166
>>> measured("C19U A56C")
0.0936
>>> measured("G6U G39U")
0.106
>>> measured("C58A A77G")
1.09
>>> measured("G1A G31C")
0.0292
